- MEASURED_ON: PI3K-α (PIK3CA) wild-type (WT), p110α/p85α complex (Homo sapiens, UniProt P42336)
- Construct: Recombinant, catalytically active human full length PIK3KA Wild-type and H1047R mutant; 6×His (N); purchased EMD Millipore Sigma 14-602M
- TEST_DESCRIPTION: PI3K-alpha kinase (PIK3CA) biochemical activity, ADP-Glo, wild-type
- CONDITIONS: Soy PI lipid substrate
IC50 reference

>  <MOLECULE>
Cc1cc(C(C)Nc2ccccc2C(=O)O)c2oc(-c3ccc4nnc(C(F)(F)F)n4c3)cc(=O)c2c1 (single isomer, unassigned) [Example 162]

>  <IC50>
> 10 µM

$$$$
>  <MOLECULE>
Cc1cc(C(C)Nc2ccccc2C(=O)O)c2oc(-c3cccc4nn(C)cc34)cc(=O)c2c1 (single isomer, unassigned) [Example 111]

>  <IC50>
0.5 to 1 µM

$$$$
>  <MOLECULE>
Cc1cc([C@@H](C)Nc2cccnc2C(=O)O)c2oc(-c3cc(C)c4nn(C)cc4c3)cc(=O)c2c1 [Example 231]

>  <IC50>
> 10 µM

$$$$

Prompt line: Report IC50 for Cc1cc(C(C)Nc2ccccc2C(=O)O)c2oc(-c3nn(C)c4ccccc34)cc(=O)c2c1 (stereo not shown) [Example 12]
Response line: 5 to 10 µM
